Tested on: human mesenchymal stem cells (hMSCs)
testSummary: chondrogenic nodule formation by hMSCs (high throughput screen)
Type: cell-based
testConditions: Homo sapiens, Mesenchymal stem cells; first value of the cell (before the slash); read-out: CHONDROGENIC μM EC50
readoutType: EC50 (µM)

[A] O=C(O)c1ccccc1C(=O)Nc1ccc(CCCc2ccccn2)cc1
[B] O=C(O)c1ccccc1C(=O)Nc1ccc(CO)cc1
[C] Cc1ccc(C(=O)Nc2ccc(C#N)cc2)cc1 [LK20b]
[D] O=C(O)c1ccc(CNC(=O)c2ccccc2C(=O)O)cc1
[E] O=C(O)c1ccccc1C(=O)Nc1ccc2c(c1)OCO2
Data request: # desc sort on EC50 across 5 compounds Kindly provide the labels arranged according to the requested ordering.
Data returned: E, D, A, B, C
(E: 3.36 µM, D: 0.398 µM, A: 0.12 µM, B: 0.04 µM, C: 0.014 µM)
